# Test system: CCRIS mutagenicity, Ames/micronucleus/aberration tests
# EXPERIMENTAL_DETAILS: CCRIS mutagenicity studies
# CONDITIONS: Test System: AMES SALMONELLA TYPHIMURIUM; Strain/Indicator: TA98; Metabolic Activation: RAT, LIVER, S-9, AROCLOR 1254 (10%); Method: PREINCUBATION
# From the text: The CCRIS database contains chemical records with carcinogenicity, mutagenicity, tumor promotion, and tumor inhibition test results. It was developed by the National Cancer Institute (NCI). Data are derived from studies cited in primary journals, current awareness tools, NCI reports, and other sources. Test results have been reviewed by experts in carcinogenesis and mutagenesis. CCRIS provides historical information from the years 1985 - 2011. It is no longer updated. […]
The source made the active and inactive calls. No rule for the calls is given here.
Labels: t (active), f (inactive)

| COMPOUND | TEST_TARGET | ASSIGNED_CLASS |
| --- | --- | --- |
| O=[N+]([O-])c1c2ccccc2cc2ccccc12 | CCRIS mutagenicity, Ames/micronucleus/aberration tests | t |
| CCCCC(CC)COC(=O)C(C#N)=C(c1ccccc1)c1ccccc1 (stereo not given) | CCRIS mutagenicity, Ames/micronucleus/aberration tests | f |
| O=C(OC1CCCCC1)c1ccccc1C(=O)OC1CCCCC1 | CCRIS mutagenicity, Ames/micronucleus/aberration tests | f |
| O=C1c2c(O)cccc2Cc2cccc(O)c21 | CCRIS mutagenicity, Ames/micronucleus/aberration tests | f |
| Nc1n[nH]c(N)n1 | CCRIS mutagenicity, Ames/micronucleus/aberration tests | f |
| O=C(Nc1cccc2c(=O)c3c(ccc4c5cc(NC(=O)c6ccccc6)c6c(=O)c7ccccc7c(=O)c6c5[nH]c43)c(=O)c12)c1ccccc1 | CCRIS mutagenicity, Ames/micronucleus/aberration tests | f |
| O=C1CSC(=S)N1 | CCRIS mutagenicity, Ames/micronucleus/aberration tests | f |
| CCOC(=O)C1OC1c1ccccc1 (stereo not given) | CCRIS mutagenicity, Ames/micronucleus/aberration tests | f |
| FC(F)(F)C(Cl)Br (stereo not given) | CCRIS mutagenicity, Ames/micronucleus/aberration tests | f |
| OCCN1CN(CCO)CN(CCO)C1 | CCRIS mutagenicity, Ames/micronucleus/aberration tests | f |
| O=C(O)CN(CCN(CC(=O)O)CC(=O)O)CC(=O)O | CCRIS mutagenicity, Ames/micronucleus/aberration tests | f |
| O=C(OCC1CO1)c1cccc(C(=O)OCC2CO2)c1 (stereo not given) | CCRIS mutagenicity, Ames/micronucleus/aberration tests | f |
| Cc1ccco1 | CCRIS mutagenicity, Ames/micronucleus/aberration tests | f |
| CCCCC(CC)COC(=O)CCCCC(=O)O (stereo not given) | CCRIS mutagenicity, Ames/micronucleus/aberration tests | f |
| C=C(C)C(=O)OCC | CCRIS mutagenicity, Ames/micronucleus/aberration tests | f |
